study.target: T1, EsCas13d, nuclease-dead (Eubacterium siraeum, UniProt B0MS50, R295A;H300A;R849A;H854A)
T1 sequence: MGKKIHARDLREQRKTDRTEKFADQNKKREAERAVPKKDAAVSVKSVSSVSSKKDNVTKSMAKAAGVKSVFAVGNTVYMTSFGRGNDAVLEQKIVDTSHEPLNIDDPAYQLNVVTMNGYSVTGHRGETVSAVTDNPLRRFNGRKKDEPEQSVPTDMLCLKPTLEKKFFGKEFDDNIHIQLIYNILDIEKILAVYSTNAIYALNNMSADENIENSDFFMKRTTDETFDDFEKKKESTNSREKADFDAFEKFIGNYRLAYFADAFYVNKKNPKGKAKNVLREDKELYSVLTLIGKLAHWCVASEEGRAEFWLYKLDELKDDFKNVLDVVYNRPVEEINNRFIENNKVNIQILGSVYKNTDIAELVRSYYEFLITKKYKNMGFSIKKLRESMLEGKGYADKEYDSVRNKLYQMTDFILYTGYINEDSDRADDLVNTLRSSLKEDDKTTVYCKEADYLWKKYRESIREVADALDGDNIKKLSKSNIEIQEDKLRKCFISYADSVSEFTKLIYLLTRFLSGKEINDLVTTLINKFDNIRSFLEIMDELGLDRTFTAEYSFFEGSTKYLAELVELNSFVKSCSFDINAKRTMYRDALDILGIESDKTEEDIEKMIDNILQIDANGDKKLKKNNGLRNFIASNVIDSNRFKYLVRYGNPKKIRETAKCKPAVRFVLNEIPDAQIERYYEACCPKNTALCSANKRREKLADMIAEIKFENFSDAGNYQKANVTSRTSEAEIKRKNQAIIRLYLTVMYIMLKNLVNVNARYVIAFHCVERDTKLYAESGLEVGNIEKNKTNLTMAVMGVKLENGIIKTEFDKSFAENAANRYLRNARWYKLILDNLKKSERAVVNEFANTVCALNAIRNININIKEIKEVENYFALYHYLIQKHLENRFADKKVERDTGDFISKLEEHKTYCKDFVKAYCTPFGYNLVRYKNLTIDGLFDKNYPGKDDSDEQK
test.name: crRNA (strand 1, pre-loaded); Mg2+; 40 mM Tris-HCl pH 7.5, 150 mM NaCl, 6 mM MgCl2, 1 mM DTT, 0.1% Tween-20, 0.2 mg/ml BSA; 25 C; 10 min per concentration, then washed
condition.label: tags: His6-TwinStrep-SUMO cleaved; N-terminal SNAP kept (SNAP-Surface 488); label: 3' end held by stalled T7 RNA polymerase
pKd: −log10 of the molar value.
readout.name: pKd

>>> assay_result("target 2 MT 5'PFS CUG 3'PFS UCC (mixed) RNA 1: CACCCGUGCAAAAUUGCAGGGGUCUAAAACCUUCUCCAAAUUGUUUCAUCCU RNA 2: GGGAAUGGAUCCACAUCUACGAAUUCCUGAGGAUGAAACAAUUUGGAGAAGUCCAGAUCGGAAGAGCACACGU")
8.21
>>> assay_result("target 3 insC 3' of 13,insC 3' of 3 (mixed) RNA 1: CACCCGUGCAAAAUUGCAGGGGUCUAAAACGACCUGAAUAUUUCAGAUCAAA RNA 2: GGGAAUGGAUCCACAUCUACGAAUUCGUUUUUGAUCUGACAAUAUUCAGGCUCUGCAGAUCGGAAGAGCACACGU")
7.09
>>> assay_result("target 2 MT 5'PFS AGA 3'PFS UAC (mixed) RNA 1: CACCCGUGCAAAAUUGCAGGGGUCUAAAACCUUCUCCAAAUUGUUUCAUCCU RNA 2: GGGAAUGGAUCCACAUCUACGAAUUCAGAAGGAUGAAACAAUUUGGAGAAGUACAGAUCGGAAGAGCACACGU")
8.19
>>> assay_result("target 1 insA 3' of 12,insG 3' of 8 (mixed) RNA 1: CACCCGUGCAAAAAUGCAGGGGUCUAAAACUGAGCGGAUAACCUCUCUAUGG RNA 2: GGGAAUGGAUCCACAUCUACGAAUUCGUACCAUAGAGAGGAUUAUGCCGCUCACCGAGAUCGGAAGAGCACACGU")
7.49
>>> assay_result("target 1 insU 3' of 18,insA 3' of 6 (mixed) RNA 1: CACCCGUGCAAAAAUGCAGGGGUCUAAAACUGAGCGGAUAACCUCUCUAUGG RNA 2: GGGAAUGGAUCCACAUCUACGAAUUCGUACCAUAUGAGAGGUUAUCCAGCUCACCGAGAUCGGAAGAGCACACGU")
7.49
>>> assay_result("target 1 G5U,A14G (mixed) RNA 1: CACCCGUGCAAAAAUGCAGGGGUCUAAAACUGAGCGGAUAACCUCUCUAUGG RNA 2: GGGAAUGGAUCCACAUCUACGAAUUCGUACCAUAGAGGGGUUAUCCUCUCACCGAGAUCGGAAGAGCACACGU")
7.17
>>> assay_result("target 2 MT 5'PFS AGA 3'PFS UUG (mixed) RNA 1: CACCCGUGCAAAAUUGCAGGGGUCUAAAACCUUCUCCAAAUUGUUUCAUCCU RNA 2: GGGAAUGGAUCCACAUCUACGAAUUCAGAAGGAUGAAACAAUUUGGAGAAGUUGAGAUCGGAAGAGCACACGU")
8.21
>>> assay_result("target 1 insG 3' of 19,insC 3' of 13 (mixed) RNA 1: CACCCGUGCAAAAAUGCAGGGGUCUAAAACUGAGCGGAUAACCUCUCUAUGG RNA 2: GGGAAUGGAUCCACAUCUACGAAUUCGUACCAUGAGAGAGCGUUAUCCGCUCACCGAGAUCGGAAGAGCACACGU")
7.17
>>> assay_result("target 1 insC 3' of 22,insU 3' of 1 (mixed) RNA 1: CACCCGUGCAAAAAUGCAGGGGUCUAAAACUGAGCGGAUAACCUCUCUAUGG RNA 2: GGGAAUGGAUCCACAUCUACGAAUUCGUACCCAUAGAGAGGUUAUCCGCUCAUCCGAGAUCGGAAGAGCACACGU")
7.69
>>> assay_result("target 1 G5U,G12U (mixed) RNA 1: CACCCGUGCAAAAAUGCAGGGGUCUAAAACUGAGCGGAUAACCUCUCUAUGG RNA 2: GGGAAUGGAUCCACAUCUACGAAUUCGUACCAUAGAGAGUUUAUCCUCUCACCGAGAUCGGAAGAGCACACGU")
7.39
>>> assay_result("target 2 MT 5'PFS GCC 3'PFS CUC (mixed) RNA 1: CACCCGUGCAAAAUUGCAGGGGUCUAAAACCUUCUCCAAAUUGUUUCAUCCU RNA 2: GGGAAUGGAUCCACAUCUACGAAUUCGCCAGGAUGAAACAAUUUGGAGAAGCUCAGAUCGGAAGAGCACACGU")
7.74
>>> assay_result("target 1 C4U,C6U (mixed) RNA 1: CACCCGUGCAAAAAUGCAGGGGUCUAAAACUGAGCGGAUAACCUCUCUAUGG RNA 2: GGGAAUGGAUCCACAUCUACGAAUUCGUACCAUAGAGAGGUUAUCUGUUCACCGAGAUCGGAAGAGCACACGU")
7.55
>>> assay_result("target 1 insC 3' of 13,insG 3' of 3 (mixed) RNA 1: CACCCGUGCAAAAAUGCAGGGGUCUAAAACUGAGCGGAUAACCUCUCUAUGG RNA 2: GGGAAUGGAUCCACAUCUACGAAUUCGUACCAUAGAGAGCGUUAUCCGCUGCACCGAGAUCGGAAGAGCACACGU")
8.25
>>> assay_result("target 1 insC 3' of 9,insG 3' of 4 (mixed) RNA 1: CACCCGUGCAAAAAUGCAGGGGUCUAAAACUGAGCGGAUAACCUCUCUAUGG RNA 2: GGGAAUGGAUCCACAUCUACGAAUUCGUACCAUAGAGAGGUUACUCCGCGUCACCGAGAUCGGAAGAGCACACGU")
8.15
>>> assay_result("target 3 insG 3' of 8,insU 3' of 5 (mixed) RNA 1: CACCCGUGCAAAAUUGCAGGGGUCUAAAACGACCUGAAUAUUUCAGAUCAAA RNA 2: GGGAAUGGAUCCACAUCUACGAAUUCGUUUUUGAUCUGAAAUAUGUCAUGGUCUGCAGAUCGGAAGAGCACACGU")
7.50
